# Test system: NHEM-hTERT
# Protocol details: cell viability relative to DMSO control (fraction of DMSO control); higher = less cytotoxic, active = 0.5 or less
# Condition info: 1 µM; 120 h
Counter-ions that a name gives are not always drawn.
Assign cell viability to each entry below.
Answer using only a numeral; do not append any unit.

Give its cell viability value. Item: COC(=O)/C=C/C(=O)OC [Dimethyl fumarate]
1.33

For the molecule COC(=O)c1ccc2c(c1)NC(=O)/C2=C(\Nc1ccc(N(C)C(=O)CN2CCN(C)CC2)cc1)c1ccccc1 , what cell viability is on record?
0.909

Dear colleague, I am looking for the recorded cell viability of the following molecule: CCCCCOC(=O)Nc1nc(=O)n([C@@H]2O[C@H](C)[C@@H](O)[C@H]2O)cc1F
1.14

Quick one: cell viability of CNC(=O)c1cc(Oc2ccc(NC(=O)Nc3ccc(Cl)c(C(F)(F)F)c3)cc2)ccn1 ?
1.02

Reported cell viability for CN1[C@@H]2CCC[C@H]1C[C@@H](NC(=O)c1nn(C)c3ccccc13)C2.Cl [Granisetron hydrochloride] : what is it?
1.07

GET /values?readout=cell viability&item= COc1cc(C[C@H]2C(=O)OC[C@@H]2Cc2ccc(OC)c(OC)c2)ccc1O
1.21

Field request: cell viability | item: OC[C@H]1O[C@@H](n2cnc3c2NC=NC[C@H]3O)C[C@@H]1O
1.1

Give the measured cell viability of CC[C@@]1(O)C(=O)OCc2c1cc1n(c2=O)Cc2cc3c(CN(C)C)c(O)ccc3nc2-1.Cl [Topotecan hydrochloride] .
0.768

Which value of cell viability has been reported for CN(C)c1nc(N(C)C)nc(N(C)C)n1 in the records?
0.945

cell viability lookup needed for CC1(C)[C@@H](O[C@H]2O[C@H](C(=O)O)[C@@H](O)[C@H](O)[C@H]2OC2O[C@H](C(=O)O)[C@@H](O)[C@H](O)[C@H]2O)CC[C@]2(C)[C@H]3C(=O)C=C4[C@@H]5C[C@@](C)(C(=O)O)CC[C@]5(C)CC[C@@]4(C)[C@]3(C)CC[C@@H]12 (stereo not given in full) , thanks.
1.01

Given O=[N+]([O-])c1cncn1CCN1CCOCC1 , state its recorded cell viability.
1.14

Item under review: CO[C@H]1C[C@@H]2CC[C@@H](C)[C@@](O)(O2)C(=O)C(=O)N2CCCC[C@H]2C(=O)O[C@H]([C@H](C)C[C@@H]2CC[C@@H](O)[C@H](OC)C2)CC(=O)[C@H](C)/C=C(\C)[C@@H](O)[C@@H](OC)C(=O)[C@H](C)C[C@H](C)/C=C/C=C/C=C/1C . Reported cell viability?
0.819

# get_value(readout='cell viability', item= O=C1c2c(O)ccc(O)c2C(=O)c2c(NCCNCCO)ccc(NCCNCCO)c21 )
0.695

Please look up its cell viability: Nc1ccn([C@@H]2O[C@H](CO)[C@@H](O)C2(F)F)c(=O)n1
0.639

Need cell viability of CC[C@@H](CO)NCCN[C@@H](CC)CO.Cl.Cl [Ethambutol dihydrochloride] , thanks.
1.2

What cell viability value was documented for this molecule, O=C(c1cc(Cc2n[nH]c(=O)c3ccccc23)ccc1F)N1CCN(C(=O)C2CC2)CC1 ?
0.988

Look up cell viability for this molecule: N#CC[C@@H](C1CCCC1)n1cc(-c2ncnc3[nH]ccc23)cn1
0.987

Any idea what its cell viability is? The molecule is CC(C)C[C@H](NC(=O)[C@@H](O)[C@H](N)Cc1ccccc1)C(=O)O
0.944

Any idea what its cell viability is? The molecule is CC(COc1ccccc1)N(CCCl)Cc1ccccc1.Cl (stereo not given) [Phenoxybenzamine hydrochloride]
1.13

Recorded cell viability for CN(C)C/C=C/C(=O)Nc1cc2c(Nc3ccc(F)c(Cl)c3)ncnc2cc1O[C@H]1CCOC1 , please?
1.01

Any idea what cell viability was measured for CC(C)NCC(O)COc1cccc2ccccc12.Cl (stereo not given) [Propranolol hydrochloride] ?
1.16

Name the recorded cell viability for O=C(/C=C/c1cccc(S(=O)(=O)Nc2ccccc2)c1)NO .
0.737

For the molecule O=c1cc(-c2ccc(O)cc2)oc2cc(O)cc(O)c12 , what cell viability is on record?
1.09

Give the measured cell viability of Nc1ncn([C@@H]2O[C@H](CO)[C@@H](O)[C@H]2O)c(=O)n1 .
0.874

I'd like to know its cell viability. The molecule in question is CC(C)C(=O)Nc1ccc([N+](=O)[O-])c(C(F)(F)F)c1 [Flutamide]
1.25

Given the entry CCc1cn([C@H]2C[C@H](O)[C@@H](CO)O2)c(=O)[nH]c1=O , report its measured cell viability.
0.967

Suppose we examine the molecule CN(C)CCOc1ccc(/C(=C(/CCCl)c2ccccc2)c2ccccc2)cc1.O=C(O)CC(O)(CC(=O)O)C(=O)O [Toremifene citrate] ; what cell viability value has been reported?
0.992

Which value of cell viability has been reported for Nc1nc(=O)c2c([nH]1)NCC(CNc1ccc(C(=O)N[C@@H](CCC(=O)[O-])C(=O)[O-])cc1)N2C=O.[Ca+2] (stereo not given in full) [Calcium folinate] in the records?
1.16

Item under review: O=NN(CCCl)C(=O)NCCCl . Reported cell viability?
0.992

Sample COc1cc([C@@H]2c3cc4c(cc3[C@@H](O[C@@H]3O[C@@H]5CO[C@@H](c6cccs6)O[C@H]5[C@H](O)[C@H]3O)[C@H]3COC(=O)[C@H]23)OCO4)cc(OC)c1O [Teniposide] — what was its cell viability?
0.746
